Reported combination Emax is given for each of the following compounds.
Test system: COLO-792 (Melanoma)
assay-overview: combination Emax (second highest fraction inhibited in the dose matrix, 72 h); higher = more inhibition; extreme values may be limits of the assay
Response field accepts a number only; no unit should be typed.

Problem: Which combination Emax value is on record for C=CCn1c(=O)c2cnc(Nc3ccc(N4CCN(C)CC4)cc3)nc2n1-c1cccc(C(C)(C)O)n1 [AZD1775] + C[C@@H]1COCCN1C2=NC(=NC(=C2)C3(CC3)[S@](=N)(=O)C)C4=C5C=CNC5=NC=C4 [AZD6738] (first compound max 1 µM, partner max 10 µM) ?
Result: 0.474

Problem: Which combination Emax value is on record for Cn1cnc2c(F)c(Nc3ccc(Br)cc3Cl)c(C(=O)NOCCO)cc21 [Selumetinib] + C=CCn1c(=O)c2cnc(Nc3ccc(N4CCN(C)CC4)cc3)nc2n1-c1cccc(C(C)(C)O)n1 [AZD1775] (first compound max 10 µM, partner max 1 µM) ?
Result: 0.694

Problem: Which combination Emax value is on record for CCN(CCO)CCCOc1ccc2c(Nc3cc(CC(=O)Nc4cccc(F)c4)[nH]n3)ncnc2c1 [AZD2811] + C[C@@H]1COCCN1C2=NC(=NC(=C2)C3(CC3)[S@](=N)(=O)C)C4=C5C=CNC5=NC=C4 [AZD6738] (first compound max 1 µM, 7x7, partner max 10 µM) ?
Result: 0.418

New cases:
Problem: Which combination Emax value is on record for NC1(C(=O)N[C@@H](CCO)c2ccc(Cl)cc2)CCN(c2ncnc3[nH]ccc23)CC1 [Capivasertib] + CCN(CCO)CCCOc1ccc2c(Nc3cc(CC(=O)Nc4cccc(F)c4)[nH]n3)ncnc2c1 [AZD2811] (first compound max 10 µM, 7x7, partner max 1 µM) ?
Result: 0.661
